Overview of recorded pEC50 for various binders
# Target Or Test System: T1, recombinant human NMES1 protein (Normal Mucosa of Esophagus Specific 1) (human, UniProt Q9C002 1-83, limits assumed)
# T1 construct: also called rhNMES1; recombinant NMES1 protein
# T1 sequence (Q9C002 whole entry, form in doubt): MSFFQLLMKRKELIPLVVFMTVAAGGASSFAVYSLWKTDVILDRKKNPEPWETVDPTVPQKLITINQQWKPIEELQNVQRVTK
# Method Summary: titration ELISA, plate coated with recombinant NMES1 (1 µg/mL), anti-human IgG Fc HRP detection
Value format note: pEC50 is -log10 of concentration (mol/L); just state the number.

[
  {
    "Binder": "NMES-7 anti-NMES1 monoclonal antibody (antibody, IgG1, V domains shown, also called NM-7; NMES1-7) VH: EVQLVQSGAEVKKPGASVKVSCKASGYTFNRDAISWVRQAPGQGLEWMGWISGYNGNTYYAHKVLGRATMTTDTSTNTAYMELRSLTSDDTAMYYCARVGLQPDTTMDHWGQGTLVTVSS VL: DIQMTQSPSSLSASVGDRVTITCRASQDIRNDLAWYQQKPGKAPKLLIYTASSLQTGVPSRFSGSGSGTDFTLSISSLQPEDFATYYCLQDYKYPLTFGGGTKLEIK",
    "Numeric Value": 7.84
  },
  {
    "Binder": "NMES-5 anti-NMES1 monoclonal antibody (antibody, IgG1, V domains shown, also called NM-5; NMES1-5) VH: QVQLVQSGAEVKKPGASVKVSCKASGYTFTSYGISWVRQAPGQGLEWMGWISAYNGNTNYAQKLQGRVTMTTDTSTSTAYMELRSLRSDDTAVYYCARATRGNAFDIWGQGTMVSVSS VL: QSALTQPASVSGSPGQSITISCTGTSSDVGAYNYVSWYQQHPGKAPKLMIYDVSNRPSGVSNRFSGSKSGNTASLTISGLQAEDEADYYCSSYTRSTTVVFGGGTKVTVL",
    "Numeric Value": 9.67
  }
]

As a next step, examine the binder that follows.
Requested field: pEC50. Item: NMES-4 anti-NMES1 monoclonal antibody (antibody, IgG1, V domains shown, also called NM-4; NMES1-4) VH: EVQLVQSGGEVKKPGSSVKVSCKASGGTFSTYAISWVRQAPGQGLEWMGGIIPIFGTTNYAQKFQGRVTITADRSTSTAYMELSSLRSEDTAVYYCARVSELGDYYAMDVWGQGTTVTVSS VL: DIQMTQSPSSLSASVGDRVTITCRASQGIASALAWYQQKPGKAPKLLIYDASNLESGVPSRFSGSGSGTDFTLTISSLQPEDFATYYCQQAHSFPLTFGGGTKLEIK
8.36
